- System: 885512-296-R-J2-PDC complex spheroid growth, % test/control
- assay-info: Anticancer human tumor 885512-296-R-J2-PDC patient-derived breast carcinoma cell line growth inhibition [AhR]
- protocol-conditions: curve of first compound; second compound 3.16 µM
pIC50: −log10 of the molar value.
experimental-endpoint: pIC50

| compound | experimental-result |
| --- | --- |
| Cn1ncnc1C1c2n[nH]c(=O)c3cc(F)cc(c23)NC1c1ccc(F)cc1 (stereo unspecified) + Cc1cncc(-c2nc(NCCc3c[nH]c4ccccc34)c3ncn(C(C)C)c3n2)c1 | 7.45 |
| O=C(C=Cn1cnc(-c2cc(C(F)(F)F)cc(C(F)(F)F)c2)n1)NNc1cnccn1 + Cc1cncc(-c2nc(NCCc3c[nH]c4ccccc34)c3ncn(C(C)C)c3n2)c1 | 7.37 |

1. CC(C)CC(NC(=O)C(Cc1ccccc1)NC(=O)c1cnccn1)B(O)O (stereo unspecified) + Cc1ccccc1N=Nc1ccc(NC(=O)c2ccnn2C)c(C)c1
2. O=C(C=Cc1cccc(S(=O)(=O)Nc2ccccc2)c1)NO + Cc1cncc(-c2nc(NCCc3c[nH]c4ccccc34)c3ncn(C(C)C)c3n2)c1
Req: Between the two listed entries 1 and 2 , which has its pIC50 at the higher number? Answer format: the label of the selected item.
Resp: 1

* * *

Each entry below carries its reported viability, T/C.
- Tested on: 885512-296-R-J2-PDC complex spheroid growth, % test/control
- assay-info: Anticancer human tumor 885512-296-R-J2-PDC cell line growth inhibition [AhR];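 note: spheroids exposed to compounds for seven days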
- protocol-conditions: second compound 1 µM; first compound 0.1 µM; stronger effect = lower value
// units = %; emit number, no label

| compound | experimental-endpoint | experimental-result |
| --- | --- | --- |
| NS(=O)(=O)OCC1CC(n2ccc3c(NC4CCc5ccccc54)ncnc32)CC1O (configuration not stated) + Cc1ccccc1N=Nc1ccc(NC(=O)c2ccnn2C)c(C)c1 | viability, T/C | 44.2 |
| Nc1ncn(C2CC(O)C(CO)O2)c(=O)n1 (configuration not stated) + Cc1cncc(-c2nc(NCCc3c[nH]c4ccccc34)c3ncn(C(C)C)c3n2)c1 | viability, T/C | 90.4 |

According to the records, this compound COc1cc(C2c3cc4c(cc3C(OC3OC5COC(C)OC5C(O)C3O)C3COC(=O)C23)OCO4)cc(OC)c1O (configuration not stated) + Cc1ccccc1N=Nc1ccc(NC(=O)c2ccnn2C)c(C)c1 displays viability, T/C of 102

Field viability, T/C (entry COc1cc(C2c3cc4c(cc3C(OC3OC5COC(C)OC5C(O)C3O)C3COC(=O)C23)OCO4)cc(OC)c1O (configuration not stated) + CC(CO)NC(=O)c1cc(-c2ccc(Cl)cc2)nn(-c2cnn(C)c2)c1=O ) reads 103

Nc1ccccc1NC(=O)c1ccc(CNC(=O)OCc2cccnc2)cc1 + Cc1cncc(-c2nc(NCCc3c[nH]c4ccccc34)c3ncn(C(C)C)c3n2)c1 yielded viability, T/C of 78.7

Note to self: viability, T/C recorded for COc1cc(Nc2ncc3c(n2)-c2ccc(Cl)cc2C(c2c(F)cccc2OC)=NC3)ccc1C(=O)O + Cc1ccccc1N=Nc1ccc(NC(=O)c2ccnn2C)c(C)c1 was 54.8

Sample CC1COCCN1c1cc(C2(S(C)(=N)=O)CC2)nc(-c2ccnc3[nH]ccc23)n1 (configuration not stated) + CC(CO)NC(=O)c1cc(-c2ccc(Cl)cc2)nn(-c2cnn(C)c2)c1=O ; viability, T/C observed: 97

For COc1cc(Nc2ncc3c(n2)-c2ccc(Cl)cc2C(c2c(F)cccc2OC)=NC3)ccc1C(=O)O + CC(CO)NC(=O)c1cc(-c2ccc(Cl)cc2)nn(-c2cnn(C)c2)c1=O the compound record lists viability, T/C as 51.2

Looking up CC(C)c1c(-c2ccccc2)nc2c(C#N)c[nH]n2c1=O + Cc1cncc(-c2nc(NCCc3c[nH]c4ccccc34)c3ncn(C(C)C)c3n2)c1 , I found its viability, T/C recorded as 95.4

Summary for this compound, COc1ccc([C@@H](O)c2cc(-c3ncnc4cc(N5CCOCC5)ccc34)c(F)cc2Cl)nn1 + Cc1ccccc1N=Nc1ccc(NC(=O)c2ccnn2C)c(C)c1 : viability, T/C is 96

Lookup result for CC1COCCN1c1cc(-c2ccnn2C)c2ccnc(-c3ccn[nH]3)c2n1 (configuration not stated) + CC(CO)NC(=O)c1cc(-c2ccc(Cl)cc2)nn(-c2cnn(C)c2)c1=O ; measured viability, T/C: 10.7

Measured viability, T/C, CC1(C)CCC(CN2CCN(c3ccc(C(=O)NS(=O)(=O)c4ccc(NCC5CCOCC5)c([N+](=O)[O-])c4)c(Oc4cnc5[nH]ccc5c4)c3)CC2)=C(c2ccc(Cl)cc2)C1 + Cc1ccccc1N=Nc1ccc(NC(=O)c2ccnn2C)c(C)c1 : 97.8
